target: Prostaglandin E2 receptor EP4 subtype (Homo sapiens); assay: Antagonist activity at EP4 receptor (unknown origin) by GloSensor cAMP assay
Sequence (P35408 whole entry): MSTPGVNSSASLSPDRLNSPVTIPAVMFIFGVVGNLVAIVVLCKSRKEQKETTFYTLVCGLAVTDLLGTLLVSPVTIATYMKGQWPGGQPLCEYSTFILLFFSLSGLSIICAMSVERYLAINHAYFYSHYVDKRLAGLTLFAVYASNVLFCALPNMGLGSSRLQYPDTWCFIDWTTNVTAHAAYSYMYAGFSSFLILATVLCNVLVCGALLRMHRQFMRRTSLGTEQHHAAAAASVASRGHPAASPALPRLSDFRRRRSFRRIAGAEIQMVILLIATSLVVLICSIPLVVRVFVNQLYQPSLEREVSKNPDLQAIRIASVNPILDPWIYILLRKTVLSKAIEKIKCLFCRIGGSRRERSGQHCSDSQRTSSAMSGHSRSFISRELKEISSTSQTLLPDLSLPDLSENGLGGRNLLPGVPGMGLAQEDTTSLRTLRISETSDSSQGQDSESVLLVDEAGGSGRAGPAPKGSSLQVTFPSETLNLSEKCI
pIC50: −log10 of the molar value.

lineNotation: O=C(O)c1ccc(NC(=O)c2c3ccccc3nn2Cc2ccc(F)cc2)cc1
testedSystem: Prostaglandin E2 receptor EP4 subtype (Homo sapiens)
pIC50: 5.51

* * *

target: Prostaglandin E2 receptor EP4 subtype (Rattus norvegicus, UniProt P43114); assay: Antagonist activity at rat EP4 receptor transfected in HEK293 cells assessed as inhibition of PGE2-induced cAMP production measured for 30 mins by Glosensor cAMP assay
Sequence (P43114 whole entry): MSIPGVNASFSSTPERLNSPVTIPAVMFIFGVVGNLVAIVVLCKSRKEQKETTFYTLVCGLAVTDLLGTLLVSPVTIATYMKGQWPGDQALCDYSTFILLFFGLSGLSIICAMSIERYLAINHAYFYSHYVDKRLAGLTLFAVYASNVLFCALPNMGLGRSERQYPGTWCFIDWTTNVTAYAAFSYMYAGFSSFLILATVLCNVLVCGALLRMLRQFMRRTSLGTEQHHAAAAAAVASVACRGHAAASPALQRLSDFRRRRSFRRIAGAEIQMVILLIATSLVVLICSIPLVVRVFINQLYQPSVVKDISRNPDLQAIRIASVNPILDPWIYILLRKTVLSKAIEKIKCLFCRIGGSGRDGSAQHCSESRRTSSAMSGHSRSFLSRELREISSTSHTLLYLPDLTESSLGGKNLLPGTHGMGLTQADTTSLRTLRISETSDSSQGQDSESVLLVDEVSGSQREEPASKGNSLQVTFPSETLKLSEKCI
experimentalEndpoint: IC50 (nM)

lineNotation: O=C(O)c1ccc(CNC(=O)c2c3ccccc3nn2Cc2ccc(C(F)(F)F)cc2)cc1
result: 36.3

* * *

target: Prostaglandin E2 receptor EP3 subtype (Homo sapiens, UniProt P43115); assay: Antagonist activity at human EP3 receptor expressed in CHO cells co-expressing Galpha16 assessed as inhibition of PGE2 induced intracellular calcium flux preincubated for 20 mins followed by PGE2 stimulation and measured immediately by microplate reader analysis
Sequence (P43115 whole entry): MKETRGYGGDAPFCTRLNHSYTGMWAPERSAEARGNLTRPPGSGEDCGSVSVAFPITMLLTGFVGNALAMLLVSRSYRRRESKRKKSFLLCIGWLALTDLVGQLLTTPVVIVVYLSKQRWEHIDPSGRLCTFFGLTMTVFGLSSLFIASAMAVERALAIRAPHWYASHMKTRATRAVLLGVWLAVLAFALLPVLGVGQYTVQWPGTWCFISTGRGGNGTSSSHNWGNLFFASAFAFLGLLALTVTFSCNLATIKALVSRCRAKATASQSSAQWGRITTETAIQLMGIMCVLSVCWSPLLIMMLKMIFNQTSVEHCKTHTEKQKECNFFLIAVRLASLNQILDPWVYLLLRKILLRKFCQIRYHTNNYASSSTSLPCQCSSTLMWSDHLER

lineNotation: O=C(O)c1ccc(CNC(=O)c2c3ccccc3nn2Cc2ccc(C(F)(F)F)cc2)cc1
IC50: > 10 µM

* * *

target: Cytochrome P450 2C19 (Homo sapiens, UniProt P33261)
Sequence (P33261 whole entry): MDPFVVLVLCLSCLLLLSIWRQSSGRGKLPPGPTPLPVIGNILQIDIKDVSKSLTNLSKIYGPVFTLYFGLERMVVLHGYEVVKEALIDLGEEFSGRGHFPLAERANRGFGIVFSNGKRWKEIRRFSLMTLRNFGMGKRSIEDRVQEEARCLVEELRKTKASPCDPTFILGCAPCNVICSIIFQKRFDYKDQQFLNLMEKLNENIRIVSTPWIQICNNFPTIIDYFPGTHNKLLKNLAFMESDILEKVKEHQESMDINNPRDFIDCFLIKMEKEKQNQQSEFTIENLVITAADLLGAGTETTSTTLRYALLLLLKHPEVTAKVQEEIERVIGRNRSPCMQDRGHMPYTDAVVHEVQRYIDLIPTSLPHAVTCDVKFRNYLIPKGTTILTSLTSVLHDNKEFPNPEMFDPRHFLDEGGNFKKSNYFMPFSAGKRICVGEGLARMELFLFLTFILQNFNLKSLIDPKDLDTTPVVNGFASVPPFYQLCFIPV

lineNotation: O=C(O)c1ccc(CNC(=O)c2c3ccccc3nn2Cc2ccc(C(F)(F)F)cc2)cc1
IC50: > 50 µM

* * *

biological target: Prostaglandin E2 receptor EP4 subtype (Homo sapiens); experiment: Antagonist activity at human EP4 receptor transfected in HEK293 cells assessed as inhibition of PGE2-induced cAMP production measured for 30 mins by Glosensor cAMP assay
Rule for this label: label 1 means IC50 is less than 10 nM; label 0 means IC50 is at least 10 nM.

lineNotation: O=C(O)c1ccc(CNC(=O)c2c3ccccc3nn2Cc2ccc(Cl)c(F)c2)cc1
testedSystem: Prostaglandin E2 receptor EP4 subtype (Homo sapiens)
cat: label 1
//
lineNotation: O=C(O)c1ccc(CNC(=O)c2c3ccccc3nn2CCOc2ccc(Cl)cc2)cc1
testedSystem: Prostaglandin E2 receptor EP4 subtype (Homo sapiens)
cat: label 0
//
lineNotation: COc1c(F)cc(Cn2nc3ccccc3c2C(=O)NCc2ccc(C(=O)O)cc2)cc1F
testedSystem: Prostaglandin E2 receptor EP4 subtype (Homo sapiens)
cat: label 1
//
lineNotation: COc1ccc(Cn2nc3ccccc3c2C(=O)N[C@@H](C)c2ccc(C(=O)O)cc2)cc1
testedSystem: Prostaglandin E2 receptor EP4 subtype (Homo sapiens)
cat: label 1
//
lineNotation: COc1ccc(Cn2nc3ccccc3c2C(=O)NCc2ccc(C(=O)O)cc2)cc1F
testedSystem: Prostaglandin E2 receptor EP4 subtype (Homo sapiens)
cat: label 1
//
lineNotation: O=C(O)c1ccc(CNC(=O)c2nn(Cc3ccc(C(F)(F)F)cc3)c3ccccc23)cc1
testedSystem: Prostaglandin E2 receptor EP4 subtype (Homo sapiens)
cat: label 0
//
lineNotation: O=C(O)c1ccc(CNC(=O)c2nn(Cc3ccc(OC(F)(F)F)cc3)c3ccccc23)cc1
testedSystem: Prostaglandin E2 receptor EP4 subtype (Homo sapiens)
cat: label 0
//
lineNotation: COc1ccc(Cn2nc(C(=O)NCc3ccc(C(=O)O)cc3)c3ccccc32)cc1
testedSystem: Prostaglandin E2 receptor EP4 subtype (Homo sapiens)
cat: label 0
//
lineNotation: COc1cccc(Cn2nc3ccccc3c2C(=O)NCc2ccc(C(=O)O)cc2)c1
testedSystem: Prostaglandin E2 receptor EP4 subtype (Homo sapiens)
cat: label 0
//
lineNotation: COc1ccc(Cn2nc3ccccc3c2C(=O)NCc2ccc(C(=O)O)cc2)cc1Cl
testedSystem: Prostaglandin E2 receptor EP4 subtype (Homo sapiens)
cat: label 1
//
lineNotation: COc1ccc(Cn2nc3ccccc3c2C(=O)NCc2ccc(C(=O)O)cc2)cc1
testedSystem: Prostaglandin E2 receptor EP4 subtype (Homo sapiens)
cat: label 1
//
lineNotation: O=C(O)c1ccc(CNC(=O)c2c3ccc(F)cc3nn2Cc2ccc(C(F)(F)F)cc2)cc1
testedSystem: Prostaglandin E2 receptor EP4 subtype (Homo sapiens)
cat: label 1
//
lineNotation: O=C(O)c1ccc(CNC(=O)c2c3ccccc3nn2Cc2ccc(F)cc2)cc1
testedSystem: Prostaglandin E2 receptor EP4 subtype (Homo sapiens)
cat: label 1
//
lineNotation: O=C(O)c1cccc(NC(=O)c2c3ccccc3nn2Cc2cccc(F)c2)c1
testedSystem: Prostaglandin E2 receptor EP4 subtype (Homo sapiens)
cat: label 0
//
lineNotation: O=C(O)c1ccc(CNC(=O)c2nn(Cc3cccc(C(F)(F)F)c3)c3ccccc23)cc1
testedSystem: Prostaglandin E2 receptor EP4 subtype (Homo sapiens)
cat: label 0
//
lineNotation: O=C(O)c1ccc(CNC(=O)c2c3ccccc3nn2CCOc2cccc(C(F)(F)F)c2)cc1
testedSystem: Prostaglandin E2 receptor EP4 subtype (Homo sapiens)
cat: label 0
//
lineNotation: O=C(O)c1cccc(NC(=O)c2c3ccccc3nn2Cc2ccc(F)cc2)c1
testedSystem: Prostaglandin E2 receptor EP4 subtype (Homo sapiens)
cat: label 0
//
lineNotation: O=C(O)c1ccc(CNC(=O)c2nn(Cc3ccccc3)c3ccccc23)cc1
testedSystem: Prostaglandin E2 receptor EP4 subtype (Homo sapiens)
cat: label 0
//
lineNotation: COc1cccc(Cn2nc3ccccc3c2C(=O)N[C@@H](C)c2ccc(C(=O)O)cc2)c1
testedSystem: Prostaglandin E2 receptor EP4 subtype (Homo sapiens)
cat: label 0
//
lineNotation: O=C(O)c1ccc(CNC(=O)c2c3ccccc3nn2Cc2cccc(F)c2)cc1
testedSystem: Prostaglandin E2 receptor EP4 subtype (Homo sapiens)
cat: label 0
//
lineNotation: C[C@H](NC(=O)c1c2ccccc2nn1Cc1ccc(OC(F)(F)F)cc1)c1ccc(C(=O)O)cc1
testedSystem: Prostaglandin E2 receptor EP4 subtype (Homo sapiens)
cat: label 1
//
lineNotation: O=C(O)c1ccc(C2(NC(=O)c3c4ccccc4nn3Cc3ccc(C(F)(F)F)cc3)CC2)cc1
testedSystem: Prostaglandin E2 receptor EP4 subtype (Homo sapiens)
cat: label 1
//
lineNotation: Cc1ccc(Cn2nc3ccccc3c2C(=O)NCc2ccc(C(=O)O)cc2)cc1
testedSystem: Prostaglandin E2 receptor EP4 subtype (Homo sapiens)
cat: label 1
//
lineNotation: O=C(O)c1ccc(CNC(=O)c2c3ccccc3nn2Cc2ccc(C(F)(F)F)cc2F)cc1
testedSystem: Prostaglandin E2 receptor EP4 subtype (Homo sapiens)
cat: label 1
//
lineNotation: COc1cccc(Cn2nc(C(=O)NCc3ccc(C(=O)O)cc3)c3ccccc32)c1
testedSystem: Prostaglandin E2 receptor EP4 subtype (Homo sapiens)
cat: label 0
//
lineNotation: COc1ccc2c(C(=O)NCc3ccc(C(=O)O)cc3)n(Cc3ccc(C(F)(F)F)cc3)nc2c1
testedSystem: Prostaglandin E2 receptor EP4 subtype (Homo sapiens)
cat: label 0
//
lineNotation: O=C(O)c1ccc(CNC(=O)c2nn(Cc3cccc(Cl)c3)c3ccccc23)cc1
testedSystem: Prostaglandin E2 receptor EP4 subtype (Homo sapiens)
cat: label 0
//
lineNotation: O=C(O)c1ccc(CNC(=O)c2c3ccccc3nn2Cc2cccc(Cl)c2)cc1
testedSystem: Prostaglandin E2 receptor EP4 subtype (Homo sapiens)
cat: label 1
//
lineNotation: O=C(O)c1ccc(CNC(=O)c2nn(Cc3ccc(Cl)cc3)c3ccccc23)cc1
testedSystem: Prostaglandin E2 receptor EP4 subtype (Homo sapiens)
cat: label 0
